Tested on: Echinochloa crus-galli
Assay: Herbicidal activity against Echinochloa crus-galli (barnyard grass) assessed as inhibition of root growth at 50 ppm after 6 days by flat-utensil method relative to control
Assay type: functional
Conditions: 144 h, read-out: GI
Please respond with reported inhibition of growth at 50 ppm for every item in the list.
// unit must come after the numeric part

Tell me inhibition of growth at 50 ppm of Cc1cc(C)n2s/c(=N\C(=O)C(c3ccc(Cl)cc3)C(C)C)nc2n1 (racemic) when tested on Echinochloa crus-galli.
0%

Determine reported inhibition of growth at 50 ppm for COc1cc(OC)n2s/c(=N\C(=O)C(c3ccc(Cl)cc3)C(C)C)nc2n1 (racemic) ; test system: Echinochloa crus-galli.
0%

Give inhibition of growth at 50 ppm only, for CC(C)[C@H](C(=O)/N=c1/nc2nc(Cl)cc(Cl)n2s1)c1ccc(Cl)cc1 , using Echinochloa crus-galli data.
30%

Give the observed inhibition of growth at 50 ppm of Cc1cc(C)n2s/c(=N\C(=O)[C@H](c3ccc(Cl)cc3)C(C)C)nc2n1 for Echinochloa crus-galli.
30%

Print Echinochloa crus-galli inhibition of growth at 50 ppm for COc1cc(Cl)n2s/c(=N\C(=O)[C@H](c3ccc(Cl)cc3)C(C)C)nc2n1 .
80%

Report inhibition of growth at 50 ppm under test system Echinochloa crus-galli for Cc1cc(Cl)n2s/c(=N\C(=O)[C@H](c3ccc(Cl)cc3)C(C)C)nc2n1 .
70%

Using Echinochloa crus-galli as the test system, report measured inhibition of growth at 50 ppm of COc1cc(OC)n2s/c(=N\C(=O)[C@H](c3ccc(Cl)cc3)C(C)C)nc2n1 .
20%

Find inhibition of growth at 50 ppm for Cc1cc(O)n2s/c(=N\C(=O)[C@H](c3ccc(Cl)cc3)C(C)C)nc2n1 on Echinochloa crus-galli and write it down.
70%
